Test system: Pseudomonas 6 (Pseudomonas sp.)
experiment.notes: relative growth (AUC of 72 h growth curve relative to DMSO control, dAUC) (ratio); higher = more growth (less inhibition), active = hit call of the paper
cond: 20 µM
reported.endpoint: relative growth
// print number alone

Query: State recorded relative growth with Pseudomonas 6 (Pseudomonas sp.), entry CN/C(=N/CC1CCOC1)N[N+](=O)[O-] (stereo unspecified) , no comment.
Reply: 1.06

Query: State recorded relative growth with Pseudomonas 6 (Pseudomonas sp.), entry `COc1ccc(-c2ccccc2)cc1NNC(=O)OC(C)C` , no comment.
Reply: 1.17

Query: State recorded relative growth with Pseudomonas 6 (Pseudomonas sp.), entry `CCCCN(CCCC)SN(C)C(=O)Oc1cccc2c1OC(C)(C)C2` , no comment.
Reply: 1.18

Query: State recorded relative growth with Pseudomonas 6 (Pseudomonas sp.), entry `CCC(C)(C)C(=O)OC1=C(c2ccc(Cl)cc2Cl)C(=O)OC12CCCCC2` , no comment.
Reply: 1.06

Query: State recorded relative growth with Pseudomonas 6 (Pseudomonas sp.), entry CC1COC(Cn2cncn2)(c2ccc(Oc3ccc(Cl)cc3)cc2Cl)O1 (stereo unspecified) , no comment.
Reply: 1.08

Query: State recorded relative growth with Pseudomonas 6 (Pseudomonas sp.), entry O=C(NC(=O)c1c(F)cccc1F)Nc1ccc(OC(F)(F)C(F)OC(F)(F)F)c(Cl)c1 (stereo unspecified) , no comment.
Reply: 0.98
